Values from patent US9340569B2

System: C. difficile spores
Test: Inhibition of taurocholate-induced C. difficile spore germination, Ki from Lineweaver-Burk plot
Type: cell-based, Clostridium difficile
Conditions: BHIS with 2-50 mM taurocholate plus inhibitor, OD600

COMPOUND	Inhibits Germination?
COC(=O)CC[C@@H](C)[C@H]1CC[C@H]2[C@@H]3[C@H](O)C[C@@H]4C[C@H](O)CC[C@]4(C)[C@H]3CC[C@]12C [5β-cholanic acid 3α,7α diol methyl ester, 5β-cholanic acid-3α,7α-diol methyl ester]	Yes
COC(=O)CC[C@@H](C)[C@H]1CC[C@H]2[C@@H]3[C@H](O)C[C@@H]4C[C@H](OC(C)=O)CC[C@]4(C)[C@H]3CC[C@]12C	Yes
CC(CCC(=O)O)C1CCC2C3CC(=O)C4CC(O)CCC4(C)C3CCC12C (stereo not drawn) [6-ketolithocholate]	Yes
COC(=O)CC[C@@H](C)[C@H]1CC[C@H]2[C@@H]3[C@H](OC(C)=O)C[C@@H]4C[C@H](OC(C)=O)CC[C@]4(C)[C@H]3CC[C@]12C	Yes
COC(=O)CC[C@@H](C)[C@H]1CC[C@H]2[C@@H]3C[C@@H](O)[C@@H]4C[C@H](O)CC[C@]4(C)[C@H]3CC[C@]12C [5β-cholanic acid 3α,6β diol methyl ester]	Yes
CC(=O)O[C@@H]1CC[C@@]2(C)[C@H](CC[C@@H]3[C@@H]2CC[C@]2(C)[C@@H]([C@H](C)CCC(=O)O)CC[C@@H]32)C1 [5β-cholanic acid 3α-ol-acetate]	No

====

Biological target: C. difficile spores
Assay: Inhibition of taurocholate-induced C. difficile spore germination, Ki from Lineweaver-Burk plot
Settings: binding constant of inhibitor for the spore, competition with taurocholate
pKi: −log10 of the molar value.

MOLECULE	pKi
COC(=O)CC[C@@H](C)[C@H]1CC[C@H]2[C@@H]3[C@H](OC(C)=O)C[C@@H]4C[C@H](OC(C)=O)CC[C@]4(C)[C@H]3CC[C@]12C	4.40
COC(=O)CC[C@@H](C)[C@H]1CC[C@H]2[C@@H]3[C@H](O)C[C@@H]4C[C@H](O)CC[C@]4(C)[C@H]3CC[C@]12C	4.66
COC(=O)CC[C@@H](C)[C@H]1CC[C@H]2[C@@H]3[C@H](O)C[C@@H]4C[C@H](OC(C)=O)CC[C@]4(C)[C@H]3CC[C@]12C	4.40
CC(CCC(=O)O)C1CCC2C3CC(=O)C4CC(O)CCC4(C)C3CCC12C (centres unmarked) [6-ketolithocholate]	3.70
COC(=O)CC[C@@H](C)[C@H]1CC[C@H]2[C@@H]3C[C@@H](O)[C@@H]4C[C@H](O)CC[C@]4(C)[C@H]3CC[C@]12C	4.32
